testSummary: in vitro
settings: SD, HW or BN, rat, plasma
Listing: fraction unbound at 5 h of selected compounds
measurementName: fraction unbound at 5 h

[[record]]
compound = "N#C[C@]1(NC(=O)[C@@H](N)Cc2cccs2)C[C@H]1c1ccccc1"
measurementname = "fraction unbound at 5 h"
number = 0.294

[[record]]
compound = "CCC(CC)[C@@H](CO)NS(=O)(=O)c1ccc(Cl)s1"
measurementname = "fraction unbound at 5 h"
number = 0.0909

[[record]]
compound = "Cc1ccc(S(=O)(=O)Nc2c(C(=O)NC(C)C(C)(C)C)c(C)nn2-c2ccccc2)cc1 (centres undefined)"
measurementname = "fraction unbound at 5 h"
number = 0.0457

[[record]]
compound = "O=c1[nH]c2c(O)ccc([C@@H](O)CNCCc3cccc(CNCCc4ccccc4F)c3)c2s1"
measurementname = "fraction unbound at 5 h"
number = 0.134

[[record]]
compound = "CC(C)c1nc2ccccc2n1-c1nc(N2CCOCC2)c2nc(OC3CN(C4CCS(=O)(=O)CC4)C3)n(C)c2n1"
measurementname = "fraction unbound at 5 h"
number = 0.22

[[record]]
compound = "O=C1N(c2ccccc2)c2ccccc2C1(Cc1ccncc1)Cc1ccncc1"
measurementname = "fraction unbound at 5 h"
number = 0.101

[[record]]
compound = "CCOCc1nc2c(N)nc3ccccc3c2n1CC(C)(C)O"
measurementname = "fraction unbound at 5 h"
number = 0.574

[[record]]
compound = "CN1CCc2cc(Cl)c(O)cc2[C@@H](c2ccccc2)C1"
measurementname = "fraction unbound at 5 h"
number = 0.17

[[record]]
compound = "Cc1ccc(S(=O)(=O)Nc2c(C(=O)N[C@@H](C)C(C)(C)C)c(C(F)(F)F)nn2-c2ccccc2)cc1"
measurementname = "fraction unbound at 5 h"
number = 0.0097

[[record]]
compound = "CS(=O)(=O)c1ccc(-c2cc(Cl)ccc2OCC(=O)O)c(Cl)c1"
measurementname = "fraction unbound at 5 h"
number = 0.035

[[record]]
compound = "O=C(N[C@@H]1COc2cccc(-c3ccc(CO)nc3)c2C1)c1ccc(OCCOCC(F)(F)F)nc1"
measurementname = "fraction unbound at 5 h"
number = 0.089

[[record]]
compound = "C[S+]([O-])Cc1ccc(C(=O)Nc2ccc(OCCOCCO)nc2C(=O)NCC2CCC2)c2ccccc12 (centres undefined)"
measurementname = "fraction unbound at 5 h"
number = 0.0343

[[record]]
compound = "CO[C@H]1CN(CCn2c(=O)ccc3ccc(C#N)cc32)CC[C@H]1NCc1cc2c(cn1)OCCO2"
measurementname = "fraction unbound at 5 h"
number = 0.738

[[record]]
compound = "CC(C)(C)OC(=O)NC[C@H]1CC[C@H](CNC(=O)c2cc(-c3ccccc3)nc3ccccc23)CC1"
measurementname = "fraction unbound at 5 h"
number = 0.005

[[record]]
compound = "COc1cnc(-c2cccc(F)c2C(F)(F)CNC(=O)c2ccc(COCC(F)(F)F)nc2)cn1"
measurementname = "fraction unbound at 5 h"
number = 0.0457

[[record]]
compound = "Cc1ccc(C(=O)NC2CC2)cc1-c1ccc(C(=O)NCC2CC2)nc1"
measurementname = "fraction unbound at 5 h"
number = 0.089

[[record]]
compound = "CCS(=O)(=O)c1ccc(-c2cc(C(F)(F)F)ccc2OCC(=O)O)c(Cl)c1"
measurementname = "fraction unbound at 5 h"
number = 0.0313

[[record]]
compound = "Cc1ccc(C(NC(=O)c2ccccc2O)C(=O)Nc2c(C)cccc2C)s1 (centres undefined)"
measurementname = "fraction unbound at 5 h"
number = 0.0075

[[record]]
compound = "N#CC[C@H](C1CCCC1)n1cc(-c2ncnc3[nH]ccc23)cn1"
measurementname = "fraction unbound at 5 h"
number = 0.173

